Test: PBPK food effect modeling (Simcyp V17.1 and/or GastroPlus V9.5; Model 1 / Model 2)
Parameters: species or system human
Settings: Model 2
Structures can show the parent of a compound that is named as a salt.
ATTRIBUTE_MEASURED: AUC Ratio of Ratios (Sim'd / Obs'd)
The reply should be a number, written without any unit.

get_value(item= O=C1NC(=O)C(c2ccccc2)(c2ccccc2)N1 , readout=AUC Ratio of Ratios (Sim'd / Obs'd)) returns 0.99

get_value(item= CCc1nn(CCCN2CCN(c3cccc(Cl)c3)CC2)c(=O)n1CCOc1ccccc1 [Nefazodone HCl] , readout=AUC Ratio of Ratios (Sim'd / Obs'd)) returns 1.47

get_value(item= Cc1ccc(-c2ncc(Cl)cc2-c2ccc(S(C)(=O)=O)cc2)cn1 , readout=AUC Ratio of Ratios (Sim'd / Obs'd)) returns 1.06

get_value(item= Cl.O=C1Cc2cc(CCN3CCN(c4nsc5ccccc45)CC3)c(Cl)cc2N1 [Ziprasidone HCl] , readout=AUC Ratio of Ratios (Sim'd / Obs'd)) returns 1.05

get_value(item= Cc1c(O)cccc1C(=O)N[C@@H](CSc1ccccc1)[C@H](O)CN1C[C@H]2CCCC[C@H]2C[C@H]1C(=O)NC(C)(C)C [Nelfinavir mesylate] , readout=AUC Ratio of Ratios (Sim'd / Obs'd)) returns 0.58

get_value(item= Cc1[nH]c2ccccc2c1CCNCc1ccc(/C=C/C(=O)NO)cc1 , readout=AUC Ratio of Ratios (Sim'd / Obs'd)) returns 1.25

get_value(item= CCC[C@H](NC(=O)[C@@H]1[C@H]2CCC[C@H]2CN1C(=O)[C@@H](NC(=O)[C@@H](NC(=O)c1cnccn1)C1CCCCC1)C(C)(C)C)C(=O)C(=O)NC1CC1 , readout=AUC Ratio of Ratios (Sim'd / Obs'd)) returns 0.66

get_value(item= CC1(C)CCC(CN2CCN(c3ccc(C(=O)NS(=O)(=O)c4ccc(NCC5CCOCC5)c([N+](=O)[O-])c4)c(Oc4cnc5[nH]ccc5c4)c3)CC2)=C(c2ccc(Cl)cc2)C1 , readout=AUC Ratio of Ratios (Sim'd / Obs'd)) returns 0.79

get_value(item= Cc1ccc(Nc2nccc(N(C)c3ccc4c(C)n(C)nc4c3)n2)cc1S(N)(=O)=O , readout=AUC Ratio of Ratios (Sim'd / Obs'd)) returns 0.24

get_value(item= NNC(=O)c1ccncc1 , readout=AUC Ratio of Ratios (Sim'd / Obs'd)) returns 0.91

get_value(item= CN/C(=N/CCSCc1nc[nH]c1C)NC#N , readout=AUC Ratio of Ratios (Sim'd / Obs'd)) returns 1.19

get_value(item= CCC(C)n1ncn(-c2ccc(N3CCN(c4ccc(OCC5COC(Cn6cncn6)(c6ccc(Cl)cc6Cl)O5)cc4)CC3)cc2)c1=O (stereo not drawn) , readout=AUC Ratio of Ratios (Sim'd / Obs'd)) returns 1.00

###

Assay: physchem
Settings: 37 °C, thermodynamic from solid, FaSSIF solubility
ATTRIBUTE_MEASURED: solubility (µg/mL)
Report the value in µg/mL with no unit label.

get_value(item= CCC[C@H](NC(=O)[C@@H]1[C@H]2CCC[C@H]2CN1C(=O)[C@@H](NC(=O)[C@@H](NC(=O)c1cnccn1)C1CCCCC1)C(C)(C)C)C(=O)C(=O)NC1CC1 , readout=solubility) returns 120

###

Can you tell me log10(Effective permeability) for the items I'm about to list?
Experiment: Effective human jejunum permeability (Peff,man) used in the PBPK model
Type: in vitro ADME
Conditions: human, 1 h
Counter-ions that a name gives are not always drawn.
log10 Effective permeability, ×10⁻⁶ cm/s

get_value(item= Cc1ccc(NC(=O)c2ccc(CN3CCN(C)CC3)cc2)cc1Nc1nccc(-c2cccnc2)n1 [Imatinib] , readout=log10(Effective permeability)) returns 2.04

get_value(item= CCC[C@H](NC(=O)[C@@H]1[C@H]2CCC[C@H]2CN1C(=O)[C@@H](NC(=O)[C@@H](NC(=O)c1cnccn1)C1CCCCC1)C(C)(C)C)C(=O)C(=O)NC1CC1 [Telaprevir] , readout=log10(Effective permeability)) returns 2.15

get_value(item= NNC(=O)c1ccncc1 [Isoniazid] , readout=log10(Effective permeability)) returns 2.60

get_value(item= Cc1c(O)cccc1C(=O)N[C@@H](CSc1ccccc1)[C@H](O)CN1C[C@H]2CCCC[C@H]2C[C@H]1C(=O)NC(C)(C)C [Nelfinavir mesylate] , readout=log10(Effective permeability)) returns 1.85

get_value(item= C[C@@H](O[C@H]1OCCN(Cc2n[nH]c(=O)[nH]2)[C@H]1c1ccc(F)cc1)c1cc(C(F)(F)F)cc(C(F)(F)F)c1 [Aprepitant] , readout=log10(Effective permeability)) returns 2.38

get_value(item= CCc1nn(CCCN2CCN(c3cccc(Cl)c3)CC2)c(=O)n1CCOc1ccccc1 [Nefazodone HCl] , readout=log10(Effective permeability)) returns 2.34

get_value(item= O=C1NC(=O)C(c2ccccc2)(c2ccccc2)N1 [Phenytoin] , readout=log10(Effective permeability)) returns 2.60

get_value(item= Cc1ccc(-c2ncc(Cl)cc2-c2ccc(S(C)(=O)=O)cc2)cn1 [Etoricoxib] , readout=log10(Effective permeability)) returns 2.68

get_value(item= Cc1[nH]c2ccccc2c1CCNCc1ccc(/C=C/C(=O)NO)cc1 [Panobinostat] , readout=log10(Effective permeability)) returns 2.36

get_value(item= CCC(C)n1ncn(-c2ccc(N3CCN(c4ccc(OCC5COC(Cn6cncn6)(c6ccc(Cl)cc6Cl)O5)cc4)CC3)cc2)c1=O (centres unmarked) [Itraconazole] , readout=log10(Effective permeability)) returns 3.00

get_value(item= CC[C@H]1OC(=O)[C@H](C)[C@@H](O[C@H]2C[C@@](C)(OC)[C@@H](O)[C@H](C)O2)[C@H](C)[C@@H](O[C@@H]2O[C@H](C)C[C@H](N(C)C)[C@H]2O)[C@](C)(OC)C[C@@H](C)C(=O)[C@H](C)[C@@H](O)[C@]1(C)O [Clarithromycin] , readout=log10(Effective permeability)) returns 1.48

###

Test: pKa
Details: pKa (b, basic)
Counter-ions that a name gives are not always drawn.
Response field class: enum, chosen by comparing pKa against class 1: < 6; class 2: ≥ 6 and < 9; class 3: ≥ 9

Which class holds NNC(=O)c1ccncc1 ?
class 1

Which class holds CC(C)(C)c1nc(-c2cccc(NS(=O)(=O)c3c(F)cccc3F)c2F)c(-c2ccnc(N)n2)s1 ?
class 1

Which class holds CCC(C)n1ncn(-c2ccc(N3CCN(c4ccc(OCC5COC(Cn6cncn6)(c6ccc(Cl)cc6Cl)O5)cc4)CC3)cc2)c1=O (centres unmarked) ?
class 1

Which class holds CNCCC(Oc1ccc(C(F)(F)F)cc1)c1ccccc1 (centres unmarked) [Fluoxetine HCl] ?
class 3

Which class holds CN/C(=N/CCSCc1nc[nH]c1C)NC#N ?
class 2

Which class holds Cc1cn([C@H]2C[C@H](N=[N+]=[N-])[C@@H](CO)O2)c(=O)[nH]c1=O ?
class 3

Which class holds CC1(C)CCC(CN2CCN(c3ccc(C(=O)NS(=O)(=O)c4ccc(NCC5CCOCC5)c([N+](=O)[O-])c4)c(Oc4cnc5[nH]ccc5c4)c3)CC2)=C(c2ccc(Cl)cc2)C1 ?
class 3

Which class holds CCOC(=O)C1=C[C@@H](OC(CC)CC)[C@H](NC(C)=O)[C@@H](N)C1 ?
class 2

Which class holds Cc1c(F)cccc1NC(=O)Nc1ccc(Cl)c(S(=O)(=O)[C@H]2CCCNC2)c1O ?
class 2

###

Experiment: Solubility measurement in biorelevant media (FaSSIF-V2, FeSSIF-V2)
Conditions: FaSSIF-V2 (fasted state simulated intestinal fluid), 37 °C, thermodynamic from solid, FaSSIF solubility
Where a name gives a salt, the structure may show the parent alone.
ATTRIBUTE_MEASURED: solubility (µg/mL)
Report the value in µg/mL with no unit label.

get_value(item= Cc1c(F)cccc1NC(=O)Nc1ccc(Cl)c(S(=O)(=O)[C@H]2CCCNC2)c1O , readout=solubility) returns 459

get_value(item= CCC(C)n1ncn(-c2ccc(N3CCN(c4ccc(OCC5COC(Cn6cncn6)(c6ccc(Cl)cc6Cl)O5)cc4)CC3)cc2)c1=O (centres unmarked) , readout=solubility) returns 1120

get_value(item= CCc1nn(CCCN2CCN(c3cccc(Cl)c3)CC2)c(=O)n1CCOc1ccccc1 [Nefazodone HCl] , readout=solubility) returns 1390

get_value(item= CN/C(=N/CCSCc1nc[nH]c1C)NC#N , readout=solubility) returns 22000

get_value(item= CC[C@H]1OC(=O)[C@H](C)[C@@H](O[C@H]2C[C@@](C)(OC)[C@@H](O)[C@H](C)O2)[C@H](C)[C@@H](O[C@@H]2O[C@H](C)C[C@H](N(C)C)[C@H]2O)[C@](C)(OC)C[C@@H](C)C(=O)[C@H](C)[C@@H](O)[C@]1(C)O , readout=solubility) returns 132

get_value(item= CCc1cc2c(cc1N1CCC(N3CCOCC3)CC1)C(C)(C)c1[nH]c3cc(C#N)ccc3c1C2=O , readout=solubility) returns 23

get_value(item= CC1(C)CCC(CN2CCN(c3ccc(C(=O)NS(=O)(=O)c4ccc(NCC5CCOCC5)c([N+](=O)[O-])c4)c(Oc4cnc5[nH]ccc5c4)c3)CC2)=C(c2ccc(Cl)cc2)C1 , readout=solubility) returns 0.0337

get_value(item= Cc1ccc(Nc2nccc(N(C)c3ccc4c(C)n(C)nc4c3)n2)cc1S(N)(=O)=O , readout=solubility) returns 1.2

The measurements presented in this section are drawn from paper PMC7520419.
